Measured pIC50 values are reported for all entries that follow.
Biological target: deoxyhypusine hydroxylase (Homo sapiens, UniProt Q9BU89)
Construct: endogenous in cells
Sequence (Q9BU89 whole entry): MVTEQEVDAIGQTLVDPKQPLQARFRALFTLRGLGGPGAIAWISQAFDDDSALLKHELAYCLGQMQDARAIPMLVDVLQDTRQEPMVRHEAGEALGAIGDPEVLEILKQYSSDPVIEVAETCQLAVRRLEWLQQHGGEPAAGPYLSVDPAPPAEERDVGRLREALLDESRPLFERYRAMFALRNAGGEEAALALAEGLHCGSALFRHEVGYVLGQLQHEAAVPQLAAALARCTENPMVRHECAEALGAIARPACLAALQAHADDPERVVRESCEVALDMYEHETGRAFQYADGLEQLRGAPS
Assay: Inhibition of deoxyhypusine hydroxylation in HUVEC ([3H]spermidine labeling)
Settings: [3H]spermidine, 18-20 h
Protocol: Exponentially growing HUVEC (5×10^5 cells per 60-mm dish) were incubated with 5 μCi/ml of [1,8-^3H]spermidine for 18 h in the presence or absence of the indicated concentrations of inhibitors. The cells were washed with PBS and harvested by centrifugation at 300×g for 5 minutes. […] The radioactivity in the hypusine and the deoxyhypusine fractions was measured using a Beckman liquid scintillation spectrometer.
Give only the number. pIC50 is defined as minus log10 of concentration in molar units.

These solved cases illustrate the format of a correct answer.
- molecule: "Cc1c(O)c(=O)ccn1C [deferiprone, 1,2-dimethyl-3-hydroxypyrid-4-one]"
  target.desc: "deoxyhypusine hydroxylase (Homo sapiens, UniProt Q9BU89)"
  result.number: 3.93
- molecule: "NC(Cn1ccc(=O)c(O)c1)C(=O)O (stereo not drawn) [mimosine]"
  target.desc: "deoxyhypusine hydroxylase (Homo sapiens, UniProt Q9BU89)"
  result.number: 3.72

With those in mind, consider the next molecule.
Requested field: pIC50. Item: c1ccc(-c2ccccn2)nc1 [2,2′-dipyridyl]
4.59
